Biological target: CYP2C9 (Homo sapiens)
Sequence (P11712 whole entry): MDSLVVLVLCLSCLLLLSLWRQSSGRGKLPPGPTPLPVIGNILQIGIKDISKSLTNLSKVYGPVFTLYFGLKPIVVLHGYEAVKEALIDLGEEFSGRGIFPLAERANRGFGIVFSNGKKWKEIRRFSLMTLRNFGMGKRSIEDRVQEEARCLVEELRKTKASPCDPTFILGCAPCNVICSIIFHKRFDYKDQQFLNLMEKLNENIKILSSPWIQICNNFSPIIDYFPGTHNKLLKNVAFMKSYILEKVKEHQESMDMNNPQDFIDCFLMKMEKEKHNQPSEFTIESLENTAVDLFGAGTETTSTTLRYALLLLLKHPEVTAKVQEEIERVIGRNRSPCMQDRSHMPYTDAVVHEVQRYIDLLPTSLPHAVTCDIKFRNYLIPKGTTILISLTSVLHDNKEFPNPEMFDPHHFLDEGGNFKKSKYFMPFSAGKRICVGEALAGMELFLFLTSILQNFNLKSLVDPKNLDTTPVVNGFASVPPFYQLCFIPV
Test: in vitro
Conditions: pH 7.4, Regioselectivity BzH:Arom
READOUT: selectivity ratio
// return just the number, without any unit appended

Fill in the blank: the reported selectivity ratio of COc1ccccc1C [o-Methylanisole, o-methylanisole] is ____.
1.6

---

Test system: multiple CYP isoforms
Assay: in vitro
Details: pH 7.4, Regioselectivity BzH:ODAlk, range, range over the isoforms
READOUT: selectivity ratio at 20 min, […]

Param item = COc1ccccc1C [o-Methylanisole, o-methylanisole] ; retrieve measured selectivity ratio at 20 min, […].
1.2 to 3

---

Molecular target: CYP2E1 (Homo sapiens, UniProt P05181)
Sequence (P05181 whole entry): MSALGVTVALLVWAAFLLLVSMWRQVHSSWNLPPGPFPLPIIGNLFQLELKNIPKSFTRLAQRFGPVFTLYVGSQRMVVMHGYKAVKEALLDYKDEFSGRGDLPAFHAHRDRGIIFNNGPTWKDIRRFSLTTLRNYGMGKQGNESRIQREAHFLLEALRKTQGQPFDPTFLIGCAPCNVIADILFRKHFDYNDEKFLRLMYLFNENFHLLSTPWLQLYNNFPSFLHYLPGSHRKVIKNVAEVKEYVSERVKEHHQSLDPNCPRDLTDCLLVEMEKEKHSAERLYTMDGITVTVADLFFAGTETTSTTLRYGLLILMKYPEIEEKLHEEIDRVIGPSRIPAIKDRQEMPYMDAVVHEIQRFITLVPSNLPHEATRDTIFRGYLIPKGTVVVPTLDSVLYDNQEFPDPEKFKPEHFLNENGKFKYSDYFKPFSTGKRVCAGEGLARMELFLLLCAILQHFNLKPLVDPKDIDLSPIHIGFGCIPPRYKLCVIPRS
Test: in vitro
Settings: pH 7.4, Regioselectivity BzH:Arom
READOUT: selectivity ratio
The reply should be a number, written without any unit.

I am curious: what selectivity ratio value has been reported for `COc1ccccc1C` ?
0.48
